experiment: inhibitors of hydroxyurea-induced Chk1 phosphorylation, primary screen, imaging, HeLa, phospho-Chk1 antibody, percent positive cells (AID 1186); conditions: hydroxyurea-induced phospho-Chk1 immunofluorescence imaging, higher = more signal
// reported z-score per item
Test readout: z-score

* COc1ccc([Si](C)(C)[C@@H]2[C@@H](CC(=O)N(CCO)Cc3ccccc3)O[C@]3(C(=O)N(Cc4cccc(N5C(=O)c6cccc7cccc5c67)c4)c4ccccc43)[C@H]2C)cc1 | -0.512
* C=C(/C(=C/C[C@@H](OC(C)=O)c1cccc(OCCO)c1)c1cc(C(=O)OC)ccc1OC)C(C)C | -0.541
* CC(=O)NCCCC[C@@H]1NC(=O)[C@H]2C[C@@H](C(=O)NCCCC[N+](C)(C)C)[C@@H](c3cccc(OCCO)c3)N2C1=O | 0.0751
* C=CC1c2cc(O)c(OC)cc2CCN1Cc1cc2c(cc1Br)OCO2 (configuration not stated) | -0.103
* O=C1C=C(c2ccccc2)C(=O)c2ccc([C@H]3Oc4ccccc4S(=O)(=O)N4CCC[C@@H]34)cc21 | 0.808
* CCCCCCc1nc(C2CC2)cc2c1[Si](C(C)C)(C(C)C)O[C@H]2c1ccccc1 | -0.507
* COCCOC(=O)N1C(=O)[C@@]2(c3cc(C#CC4=CCCCC4)ccc31)[C@H](c1ccc(OCCO)cc1)N1[C@H](c3ccccc3)[C@H](c3ccccc3)OC(=O)[C@H]1[C@@H]2C(=O)N1CCN(c2ncccn2)CC1 | 0.313

Hello, the source for this data is PubChem BioAssay, in case you need it.
